The origin of these recorded values is ChEMBL document CHEMBL1154736.

Consider the following molecules; for each one, report its logD.
assay: Apparent n-Octanol-water partition coefficient, log D at pH 7.4 by HPLC analysis
Numbers only.

[
  {
    "Molecule": "CC1(C)Cc2cccc(CN3CCC4(CC3)CCN(C(=O)c3ncccc3N)CC4)c2O1",
    "Measurement Name": "logD",
    "Numeric Value": 1.4
  },
  {
    "Molecule": "CC(C)COc1ccccc1CN1CCC2(CC1)CCN(C(=O)c1ccncn1)CC2",
    "Measurement Name": "logD",
    "Numeric Value": -0.11
  },
  {
    "Molecule": "CCCC1(CC)Cc2c(CN3CCC4(CC3)CCN(C(=O)c3ccc(N)cn3)CC4)cccc2O1 (configuration not stated)",
    "Measurement Name": "logD",
    "Numeric Value": 2.5
  },
  {
    "Molecule": "CC(C)(C)C1(C)Cc2c(CN3CCC4(CC3)CCN(C(=O)c3ccc(N)cn3)CC4)cccc2O1 (configuration not stated)",
    "Measurement Name": "logD",
    "Numeric Value": 2.6
  },
  {
    "Molecule": "CC1(C)Cc2c(CN3CCC4(CC3)CCN(C(=O)c3ccnc(N)c3)CC4)cccc2O1",
    "Measurement Name": "logD",
    "Numeric Value": 1.4
  },
  {
    "Molecule": "COc1ccccc1Oc1cccc(CN2CCC3(CC2)CCN(C(=O)c2ccncn2)CC3)c1",
    "Measurement Name": "logD",
    "Numeric Value": 1.7
  },
  {
    "Molecule": "CC1(C)Oc2c(CN3CCC4(CC3)CCN(C(=O)c3ccc(N)cn3)CC4)cccc2C1(F)F",
    "Measurement Name": "logD",
    "Numeric Value": 2.3
  },
  {
    "Molecule": "O=C(c1ccncc1)N1CCC2(CCN(Cc3ccccc3OC(F)(F)C(F)F)CC2)CC1",
    "Measurement Name": "logD",
    "Numeric Value": 2.8
  },
  {
    "Molecule": "O=C(c1ccncn1)N1CCC2(CCN(Cc3ccccc3Oc3ccccc3)CC2)CC1",
    "Measurement Name": "logD",
    "Numeric Value": 2
  },
  {
    "Molecule": "O=C(c1ccncc1)N1CCC2(CCN(Cc3cccc4c3OCC4)CC2)CC1",
    "Measurement Name": "logD",
    "Numeric Value": 0.3
  }
]

Batch request: logD per item, same order as input.
1. CC1(C)Cc2c(CN3CCC4(CC3)CCN(C(=O)c3ccncc3)CC4)cccc2O1
2. COc1ccccc1Oc1ccccc1CN1CCC2(CC1)CCN(C(=O)c1ccncn1)CC2

(A)
[1.6, 1.2]

----------
molecular target: Voltage-gated inwardly rectifying potassium channel KCNH2 (Homo sapiens, UniProt Q12809, S624T); assay: Inhibition of human recombinant ERG S624T mutant expressed in CHOK1 cells by whole-cell plate-based electrophysiology; settings: cho-k1
Measurement Name: delta pIC50 wt-mutant
Answers are plain numbers.

[
  {
    "Smiles Representation": "CC1(C)C=Cc2cccc(CN3CCC4(CC3)CCN(C(=O)c3ccnc(N)c3)CC4)c2O1",
    "Measurement Name": "delta pIC50 wt-mutant",
    "Numeric Value": -0.62
  },
  {
    "Smiles Representation": "CC1(C)Cc2cccc(CN3CCC4(CC3)CCN(C(=O)c3ncccc3N)CC4)c2O1",
    "Measurement Name": "delta pIC50 wt-mutant",
    "Numeric Value": 0.43
  },
  {
    "Smiles Representation": "CC1(C)Oc2c(CN3CCC4(CC3)CCN(C(=O)c3ccc(N)cn3)CC4)cccc2C1(F)F",
    "Measurement Name": "delta pIC50 wt-mutant",
    "Numeric Value": -0.62
  },
  {
    "Smiles Representation": "CC1(C)Oc2cccc(CN3CCC4(CC3)CCN(C(=O)c3ccnc(N)c3)CC4)c2O1",
    "Measurement Name": "delta pIC50 wt-mutant",
    "Numeric Value": -0.33
  }
]

Next:
(Q) # lookup: delta pIC50 wt-mutant of CC1(C)CCc2cc(CN3CCC4(CC3)CCN(C(=O)c3ccncn3)CC4)ccc2O1
(A) -0.39

----------
biological target: Voltage-gated inwardly rectifying potassium channel KCNH2 (Homo sapiens, UniProt Q12809, F656M); experiment: Inhibition of human recombinant ERG F656M mutant expressed in CHOK1 cells by whole-cell plate-based electrophysiology; conditions: cho-k1
Measurement Name: delta pIC50 wt-mutant

[
  {
    "Smiles Representation": "CC1(C)CCc2cc(CN3CCC4(CC3)CCN(C(=O)c3ccncn3)CC4)ccc2O1",
    "delta pIC50 wt-mutant": -0.3
  }
]

Please go through the list and note delta pIC50 wt-mutant for each compound.
1. CC1(C)Cc2c(CN3CCC4(CC3)CCN(C(=O)c3ccc(N)cn3)CC4)cccc2O1
2. CC1(C)Cc2cccc(CN3CCC4(CC3)CCN(C(=O)c3ncccc3N)CC4)c2O1
3. CC1(C)Cc2c(CN3CCC4(CC3)CCN(C(=O)c3ccnc(N)c3)CC4)cccc2O1

(A)
[-0.22, -0.26, 0.14]

(Q) Which delta pIC50 wt-mutant is listed for O=C(c1ccncc1)N1CCC2(CCN(Cc3ccccc3OC(F)(F)C(F)F)CC2)CC1 ?
(A) 0.48

----------
target: Voltage-gated inwardly rectifying potassium channel KCNH2 (Homo sapiens, UniProt Q12809, S624T); experiment: Inhibition of human recombinant ERG S624T mutant expressed in CHOK1 cells by whole-cell plate-based electrophysiology; details: cho-k1
Under this convention, met denotes delta pIC50 wt-mutant strictly below -0.08 and not met denotes delta pIC50 wt-mutant at or above -0.08.

[
  {
    "Compound": "COc1ccccc1Oc1cccc(CN2CCC3(CC2)CCN(C(=O)c2ccncn2)CC3)c1",
    "Classification": "met"
  },
  {
    "Compound": "CC(C)COc1ccccc1CN1CCC2(CC1)CCN(C(=O)c1ccncn1)CC2",
    "Classification": "not met"
  },
  {
    "Compound": "CC1(C)Cc2c(CN3CCC4(CC3)CCN(C(=O)c3ccnc(N)c3)CC4)cccc2O1",
    "Classification": "met"
  },
  {
    "Compound": "CC1(C)Cc2cccc(CN3CCC4(CC3)CCN(C(=O)c3ccc(N)cn3)CC4)c2O1",
    "Classification": "not met"
  },
  {
    "Compound": "CC1(C)CCc2cc(CN3CCC4(CC3)CCN(C(=O)c3ccc(N)cn3)CC4)ccc2O1",
    "Classification": "met"
  }
]

(Q) Would you kindly verify if delta pIC50 wt-mutant of CC1Cc2cccc(CN3CCC4(CC3)CCN(C(=O)c3ccncc3)CC4)c2O1 (centres undefined) is strictly less than -0.08?
(A) met

(Q) Input CC1(C)Cc2c(CN3CCC4(CC3)CCN(C(=O)c3ccc(N)cn3)CC4)cccc2O1
(A) not met

(Q) Next: COc1ccccc1Oc1ccccc1CN1CCC2(CC1)CCN(C(=O)c1ccc[nH]c1=O)CC2
(A) not met

----------
target: UniProt:Q12809; experiment: Displacement of [3H]dofetilide from human recombinant ERG expressed in HEK293 cells by patch clamp method
Exercise: state measured log10 of IC50 for each of the compounds provided.
Values below are the log10 of the recorded IC50, with µM as the unit.

[
  {
    "Smiles Representation": "CC1(C)Oc2c(CN3CCC4(CC3)CCN(C(=O)c3ccc(N)cn3)CC4)cccc2C1(F)F",
    "Target Desc": "UniProt:Q12809",
    "log10 of IC50": 1.68
  },
  {
    "Smiles Representation": "CC(C)COc1ccccc1CN1CCC2(CC1)CCN(C(=O)c1ccncn1)CC2",
    "Target Desc": "UniProt:Q12809",
    "log10 of IC50": 1.28
  },
  {
    "Smiles Representation": "O=C(c1ccncc1)N1CCC2(CCN(Cc3ccccc3OC(F)(F)C(F)F)CC2)CC1",
    "Target Desc": "UniProt:Q12809",
    "log10 of IC50": 1.23
  },
  {
    "Smiles Representation": "CC1(C)Oc2cccc(CN3CCC4(CC3)CCN(C(=O)c3ccnc(N)c3)CC4)c2O1",
    "Target Desc": "UniProt:Q12809",
    "log10 of IC50": -0.12
  }
]

State the recorded log10 of IC50 for every item in the following list.
1. CC1(C)Cc2c(CN3CCC4(CC3)CCN(C(=O)c3ccnc(N)c3)CC4)cccc2O1
2. COc1ccccc1Oc1ccccc1CN1CCC2(CC1)CCN(C(=O)c1ccc[nH]c1=O)CC2
3. CC1(C)Cc2c(CN3CCC4(CC3)CCN(C(=O)c3ccc(N)cn3)CC4)cccc2O1
4. CC1(C)Cc2c(CN3CCC4(CC3)CCN(C(=O)c3ccncc3)CC4)cccc2O1
5. CC1(C)Cc2cccc(CN3CCC4(CC3)CCN(C(=O)c3ccc(N)cn3)CC4)c2O1
6. CC1(C)Cc2cccc(CN3CCC4(CC3)CCN(C(=O)c3ncccc3N)CC4)c2O1
7. CC1(C)CCc2cc(CN3CCC4(CC3)CCN(C(=O)c3ccc(N)cn3)CC4)ccc2O1

(A)
1: 1.23; 2: 0.30; 3: 1.11; 4: 1.48; 5: 1.57; 6: 1.51; 7: 1.51
